Experimental System: GalNAc(b1-3)GalNAc
Assay Summary: glycan array binding signal (z-score within array); higher = stronger binding
Condition Description: glycan notation: IUPAC condensed, linker removed
The full list was thinned out, with the strongest signals kept by preference.
Below, each entry is listed alongside its reported glycan array binding signal (z-score).
Output: the number by itself.

INSERT INTO measurements (binder, assay_result) VALUES
  ('Drgal1 (Danio rerio) (protein) MAGVLIQNMSFKVGQTLTITGVPKPDSTNFAINIGHSPEDIALHMNPRFDAHGDQCTIVCNSFQSGSWCEEHRDDNFPFIQDKEFQIKITFTNEEFLVTLPDGSEIHFPNRQGSEKYKYMYFEGEVRIQGVEIK', 0.158),
  ('AAA (Anguilla anguilla), Q7SIC1 (protein) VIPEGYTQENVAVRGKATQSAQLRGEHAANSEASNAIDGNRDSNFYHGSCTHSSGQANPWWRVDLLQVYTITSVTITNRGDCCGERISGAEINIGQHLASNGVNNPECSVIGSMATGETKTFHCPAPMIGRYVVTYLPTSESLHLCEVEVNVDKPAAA', -0.16);

In the following, a different binder is considered.
Answer with the recorded glycan array binding signal (z-score) of GNA (Galanthus nivalis), P30617 (protein) MAKASLLILAAIFLGVITPSCLSDNILYSGETLSTGEFLNYGSFVFIMQEDCNLVLYDVDKPIWATNTGGLSRSCFLSMQTDGNLVVYNPSNKPIWASNTGGQNGNYVCILQKDRNVVIYGTDRWATGTHTGLVGIPASPPSEKYPTAGKIKLVTAK only.
-0.175
